Values were extracted from PubChem BioAssay (NCI).

Tested on: HCT-116 colon
Experiment: NCI-60 one-dose screen, 48 h (100 = growth as untreated, 0 = no growth, -100 = all killed)
Conditions: 10 µM unless noted
Protocol: Growth inhibition of the HCT-116 human tumor cell line is measured as a screen for anti-cancer activity. Cells are grown in 96 well plates and exposed to the test compound for 48 hours. Compounds are tested at a single concentration, which is 10^-5 M for most compounds. The reported endpoint is percent growth (GI% or GIPRCNT), where numbers from 0 - 100% represent growth inhibition, and numbers from -100% - 0 represent cell death. For example, a value of 40 represents 60% growth inhibition. […]
This is part of a sample that, as a whole, favours compounds with a hit. Of some 83,000 tested, about 20% had one in any assay.
metric name: growth (%)
Kindly provide the numeric value in % only, without the unit symbol.

A selection of reference data follows.
Cc1ccccc1-n1c(C)nc2cc(NC(=O)c3ccc(Cl)cc3)ccc2c1=O	74.8
N=C(N)c1ccc(-c2ccc(-c3ccc(Cl)cc3)s2)s1	-98.4
COc1cc2ncnc(-n3ncc4cc(NC(=O)Nc5ccc(Cl)c(C)c5)ccc43)c2cc1OC	81.5
Cc1ccc(CC(=O)O)c(C)c1	107
COCC(=O)NNc1[nH]c(-c2ccc(OC)cc2)cc1C#N	110
O=C(CCC(=O)N(CCO)CCO)N(CCO)CCO	95.7
COC(=O)Nc1nc2ccc(C(=O)c3ccccc3N(C)C3COC3)cc2[nH]1	30.4
COc1ccc2cn3c4ccc(O)cc4[nH]c(=O)c3c2c1	10.6

Q: Would you mind telling me what growth value was observed for CC1(C)CC(=O)C2=C(C1)Oc1nc(N)c(C#N)c(N)c1C2c1ccc(F)cc1 (stereo not drawn) ?
A: 109

Q: Next entry: CCCC(CCC)Oc1ccc(CCCC2=C(O)c3ccccc3C(=O)C2=O)cc1
A: 16.7

Q: Next entry: COC(=O)c1ccc2[nH]c(O)c(C(=Nc3ccc(N(C)C(=O)CN4CCN(C)CC4)cc3)c3ccc(C)cc3)c2c1
A: -66.1
